assay-text: Plasma pharmacokinetics of Compound I after single intraperitoneal dose in Swiss-Webster mice (Example 1)
Format: in vivo
condition-description: female, CFW (Swiss-Webster), mouse, ip; Swiss-Webster mice, plasma, 5 mg/kg intraperitoneal
assay-endpoint: Cmax (ng/mL)
Kindly answer with a numeric value in ng/mL, unit omitted.

Dear colleague, I am looking for the recorded Cmax of the following compound: O=C(O)C[C@@H]1CC[C@H](NC(=O)Cc2cccs2)B(O)O1 [Compound I]
8260

----------
assay-text: in vivo
Design: species or system Swiss-Webster mice
condition-description: female, CFW (Swiss-Webster), mouse, ip, 100 mg/kg, Calc. Conc. (plasma concentration)
assay-endpoint: concentration at 3 h

Endpoint output: concentration at 3 h of C[C@@H](O)[C@H]1C(=O)N2C(C(=O)[O-])=C(SC3Cn4cnc[n+]4C3)[C@H](C)[C@H]12 (stereo partly shown) [Biapenem] . Value?
12.3 ng/mL

----------
assay-text: Single-dose pharmacokinetics of Compound I, intraperitoneal administration to Swiss-Webster mice (Example 5)
Assay type: in vivo
condition-description: plasma, Mouse, 15 mg/kg IP
Description: Example 5 provides the single-dose pharmacokinetic studies of Compound I inpreclinical species, including intraperitoneal administration to Swiss-Webster mice and intravaneous administration to Sprague-Dawley rats, Beagle dogs, and Cynomologus monkeys. Intravaneous doses of Compound I were administered as 30-minute infusions. […] Compound I concentrations were determined using an LC-MS detection method.
assay-endpoint: half-life
Don't forget the unit after the number, please.

Please report the recorded half-life for O=C(O)C[C@@H]1CC[C@H](NC(=O)Cc2cccs2)B(O)O1 [Compound I] .
12 min

----------
assay-text: Single-dose pharmacokinetics of Compound I, intraperitoneal administration to Swiss-Webster mice (Example 5)
Type: in vivo
condition-description: plasma, Mouse, 5 mg/kg IP
assay-endpoint: AUC (ng·h/mL)
Number only, in ng·h/mL; omit the unit.

Return reported AUC; argument: `O=C(O)C[C@@H]1CC[C@H](NC(=O)Cc2cccs2)B(O)O1`
3100

----------
assay-text: Single-dose pharmacokinetics of Compound I, intravenous 30-minute infusion in Sprague-Dawley rats (Example 5)
Assay type: in vivo
condition-description: Sprague-Dawley, in vivo, Rat, 50 mg/kg IV
assay-endpoint: AUC (ng·h/mL)
Record the value in ng·h/mL, omitting the unit from your answer.

Return reported AUC; argument: O=C(O)C[C@@H]1CC[C@H](NC(=O)Cc2cccs2)B(O)O1 [Compound I]
28200

----------
assay-text: Single-dose pharmacokinetics of Compound I, intravenous 30-minute infusion in Cynomologus monkeys (Example 5)
Assay type: in vivo
condition-description: cynomolgus, in vivo, Monkey, 20 mg/kg IV
Experimental: Example 5 provides the single-dose pharmacokinetic studies of Compound I inpreclinical species, including intraperitoneal administration to Swiss-Webster mice and intravaneous administration to Sprague-Dawley rats, Beagle dogs, and Cynomologus monkeys. Intravaneous doses of Compound I were administered as 30-minute infusions. […] Compound I concentrations were determined using an LC-MS detection method.
assay-endpoint: Cmax (µg/mL)
Please give a number only; it is taken to be in µg/mL.

Item `O=C(O)C[C@@H]1CC[C@H](NC(=O)Cc2cccs2)B(O)O1` has what recorded Cmax?
54.9

----------
assay-text: in vivo
Design: species or system Swiss-Webster mice
condition-description: female, CFW (Swiss-Webster), mouse, ip, 100 mg/kg
assay-endpoint: Cmax
Form entry: enter the amount, then its unit.

Look at this molecule and give its reported Cmax. C[C@@H](O)[C@H]1C(=O)N2C(C(=O)[O-])=C(SC3Cn4cnc[n+]4C3)[C@H](C)[C@H]12 (stereo partly shown) [Biapenem]
286 µg/mL
